target: Sodium-dependent serotonin transporter (Rattus norvegicus, UniProt P31652); test: Compound was tested for binding affinity to Serotonin transporter sites in homogenates prepared from rat cortical membranes using [3H]paroxetine as radioligand
Sequence (P31652 whole entry): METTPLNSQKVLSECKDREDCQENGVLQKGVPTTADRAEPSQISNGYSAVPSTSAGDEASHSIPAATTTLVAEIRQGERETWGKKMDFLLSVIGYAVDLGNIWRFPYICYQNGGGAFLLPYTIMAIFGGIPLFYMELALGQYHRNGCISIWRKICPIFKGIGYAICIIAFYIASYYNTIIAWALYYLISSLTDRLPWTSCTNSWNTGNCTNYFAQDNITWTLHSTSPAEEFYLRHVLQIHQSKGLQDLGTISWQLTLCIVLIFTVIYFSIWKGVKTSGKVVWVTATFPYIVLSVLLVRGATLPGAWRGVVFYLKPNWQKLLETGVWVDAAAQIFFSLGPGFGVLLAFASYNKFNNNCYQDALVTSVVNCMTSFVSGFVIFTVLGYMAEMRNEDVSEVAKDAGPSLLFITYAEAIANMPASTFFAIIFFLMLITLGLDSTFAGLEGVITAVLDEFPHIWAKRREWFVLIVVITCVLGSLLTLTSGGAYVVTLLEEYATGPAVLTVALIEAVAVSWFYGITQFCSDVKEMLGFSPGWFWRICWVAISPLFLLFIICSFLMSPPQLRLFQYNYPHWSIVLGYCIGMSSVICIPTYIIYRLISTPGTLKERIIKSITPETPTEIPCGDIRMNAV
Value kind: IC50
Answer shape: numeric part, then the unit.

COC(=O)[C@@H]1C2CC[C@H](C[C@@H]1c1ccc(I)cc1)N2C ... 3.78 nM

The record that follows has no IC50 shown yet.
// Input: COC(=O)[C@H]1[C@@H](c2ccc(F)cc2)C[C@H]2CC[C@H]1N2C . Output its IC50 only.
479 nM

Reference source for all entries: ChEMBL document CHEMBL1125816
